Source: BindingDB's records for doi:10.1002/cbic.201402321

Protein target, amino acids: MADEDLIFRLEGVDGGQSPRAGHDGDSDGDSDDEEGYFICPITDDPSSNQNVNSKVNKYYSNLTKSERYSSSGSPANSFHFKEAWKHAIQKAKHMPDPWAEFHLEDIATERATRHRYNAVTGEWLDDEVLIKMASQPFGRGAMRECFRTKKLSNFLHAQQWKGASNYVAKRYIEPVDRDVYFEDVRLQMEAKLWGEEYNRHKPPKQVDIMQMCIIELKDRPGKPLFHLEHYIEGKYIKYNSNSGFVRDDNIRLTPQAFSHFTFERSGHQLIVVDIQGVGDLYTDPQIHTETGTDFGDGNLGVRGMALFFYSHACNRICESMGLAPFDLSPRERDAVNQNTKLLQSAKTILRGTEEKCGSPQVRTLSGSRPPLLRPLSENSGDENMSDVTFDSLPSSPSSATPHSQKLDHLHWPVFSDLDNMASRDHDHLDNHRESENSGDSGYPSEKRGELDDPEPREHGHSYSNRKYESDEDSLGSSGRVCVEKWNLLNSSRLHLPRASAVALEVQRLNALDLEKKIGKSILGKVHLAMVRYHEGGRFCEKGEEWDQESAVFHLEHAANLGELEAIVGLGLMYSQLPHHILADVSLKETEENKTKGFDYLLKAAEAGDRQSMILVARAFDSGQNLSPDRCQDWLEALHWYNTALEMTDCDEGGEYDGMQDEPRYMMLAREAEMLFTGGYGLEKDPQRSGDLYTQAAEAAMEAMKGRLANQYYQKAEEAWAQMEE
value_kind: pIC50
One number for each entry, as −log10 of the molar value.

{"compound": "Cc1ccc(C2C(C#N)C(=O)NC(=O)C2C#N)cc1 (configuration not stated)", "pIC50": 4.34}

Now look at this entry.
Answer with the recorded pIC50 for the compound listed here: N#CC1C(=O)NC(=O)C(C#N)C1c1ccc(Cl)c(Cl)c1 (configuration not stated)
4.52
